# system_under_test: Platelet-activating factor acetylhydrolase (Mus musculus)
# experiment_summary: pPAFAH inhibition and serine hydrolase selectivity, late-stage follow-up, selectivity assay for pPAFAH inhibitor project, biochemical, gel-based, FP-Rh fluorescence, mouse, HTS hit compounds (AID 588773)
# condition_context: gel-based competitive ABPP, proteome, pPAFAH, inhibition, at 1 µM, stronger effect = higher value
outcome_measure: inhibition (%)

>>> recorded_number("O=C(Oc1ccc(Oc2ccccc2)cc1)N1CCC(O)CC1")
62
>>> recorded_number("CCCCOC(=O)c1ccc(OC(=O)N2CCOCC2)cc1")
70
>>> recorded_number("O=C(/C=C/c1cccs1)c1cc(Br)ccc1OC(=O)N1CCOCC1")
56
>>> recorded_number("CN(C)C(=O)Oc1noc2cc(Cl)ccc12")
92
>>> recorded_number("O=C(CCCSc1ccc(Cl)cc1)Nc1cc(S(=O)(=O)N2CCOCC2)ccc1O")
50
>>> recorded_number("O=C(Oc1ccc(-c2ccccc2)cc1)N1CCCCC1")
33
>>> recorded_number("O=C(Oc1ccc([N+](=O)[O-])cc1)N1CCC(N2CCCCC2)CC1")
66
>>> recorded_number("O=C(Oc1ccc(-c2ccccc2)cc1)N1CCOCC1")
78
>>> recorded_number("O=C(Oc1nsnc1N1CCOCC1)N1CCOCC1")
28

====

# system_under_test: Monoglyceride lipase (Mus musculus)
# experiment_summary: pPAFAH inhibition and serine hydrolase selectivity, late-stage follow-up, selectivity assay for pPAFAH inhibitor project, biochemical, gel-based, FP-Rh fluorescence, mouse, HTS hit compounds (AID 588773)
# condition_context: gel-based competitive ABPP, proteome, MAGL, inhibition, at 1 µM, stronger effect = higher value
outcome_measure: inhibition (%)

>>> recorded_number("O=C(Oc1ccc(-c2ccccc2)cc1)N1CCCCC1")
36
>>> recorded_number("O=C(Oc1ccc(-c2ccccc2)cc1)N1CCOCC1")
6
>>> recorded_number("CN(C)C(=O)Oc1noc2cc(Cl)ccc12")
2
>>> recorded_number("O=C(Oc1ccc([N+](=O)[O-])cc1)N1CCC(N2CCCCC2)CC1")
23

====

# system_under_test: Monoglyceride lipase (Mus musculus)
# experiment_summary: pPAFAH inhibition and serine hydrolase selectivity, late-stage follow-up, selectivity assay for pPAFAH inhibitor project, biochemical, gel-based, FP-Rh fluorescence, mouse, HTS hit compounds (AID 588773)
# condition_context: gel-based competitive ABPP, proteome, MAGL, at 10 µM, stronger effect = higher value
Active and inactive are the calls of the source.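 How the source made its calls: active means inhibition of plasma PAF acetylhydrolase at a set limit or more at 0.1 µM, with tenfold selectivity over all off-targets; inactive means inhibition below the limit or weaker selectivity.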
outcome_measure: inhibition

>>> result("O=C(Oc1ccc(-c2ccccc2)cc1)N1CCCCC1")
"40% (inactive)"
>>> result("O=C(CCCSc1ccc(Cl)cc1)Nc1cc(S(=O)(=O)N2CCOCC2)ccc1O")
"27% (inactive)"
>>> result("O=C(Oc1ccc(-c2ccccc2)cc1)N1CCOCC1")
"20% (inactive)"
>>> result("O=C(Oc1ccc([N+](=O)[O-])cc1)N1CCC(N2CCCCC2)CC1")
"45% (inactive)"
>>> result("CN(C)C(=O)Oc1noc2cc(Cl)ccc12")
"33% (inactive)"

====

# System: LYPLA2
# experiment_summary: pPAFAH inhibition and serine hydrolase selectivity, late-stage follow-up, selectivity assay for pPAFAH inhibitor project, biochemical, gel-based, FP-Rh fluorescence, mouse, HTS hit compounds (AID 588773)
# condition_context: gel-based competitive ABPP, proteome, at 10 µM
Activity calls are given as the source filed them.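 Rule for the calls: active = inhibition of plasma PAF acetylhydrolase at a set limit or more at 0.1 µM, with tenfold selectivity over all off-targets; inactive = inhibition below the limit or weaker selectivity.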
outcome_measure: outcome

>>> result("CN(C)C(=O)Oc1noc2cc(Cl)ccc12")
"inactive"
>>> result("O=C(Oc1nsnc1N1CCOCC1)N1CCOCC1")
"inactive"
>>> result("O=C(Oc1ccc([N+](=O)[O-])cc1)N1CCC(N2CCCCC2)CC1")
"inactive"

====

# system_under_test: Platelet-activating factor acetylhydrolase (Mus musculus)
# experiment_summary: pPAFAH inhibition and serine hydrolase selectivity, late-stage follow-up, selectivity assay for pPAFAH inhibitor project, biochemical, gel-based, FP-Rh fluorescence, mouse, HTS hit compounds (AID 588773)
# condition_context: gel-based competitive ABPP, proteome, pPAFAH, inhibition, at 0.1 µM, stronger effect = higher value
# maps each entry to its inhibition
outcome_measure: inhibition

>>> result("O=C(Oc1ccc(-c2ccccc2)cc1)N1CCOCC1")
"32%"
>>> result("CCCCOC(=O)c1ccc(OC(=O)N2CCOCC2)cc1")
"5%"
>>> result("O=C(Oc1ccc(-c2ccccc2)cc1)N1CCCCC1")
"35%"
>>> result("O=C(CCCSc1ccc(Cl)cc1)Nc1cc(S(=O)(=O)N2CCOCC2)ccc1O")
"18%"
>>> result("CN(C)C(=O)Oc1noc2cc(Cl)ccc12")
"47%"

====

# Test system: FAAH
# experiment_summary: pPAFAH inhibition and serine hydrolase selectivity, late-stage follow-up, selectivity assay for pPAFAH inhibitor project, biochemical, gel-based, FP-Rh fluorescence, mouse, HTS hit compounds (AID 588773)
# condition_context: gel-based competitive ABPP, proteome, at 10 µM, stronger effect = higher value
# maps each entry to its inhibition
outcome_measure: inhibition (%)

>>> recorded_number("O=C(Oc1ccc([N+](=O)[O-])cc1)N1CCC(N2CCCCC2)CC1")
60
>>> recorded_number("O=C(Oc1ccc(-c2ccccc2)cc1)N1CCCCC1")
99
>>> recorded_number("O=C(Oc1ccc(Oc2ccccc2)cc1)N1CCC(O)CC1")
17
>>> recorded_number("O=C(Oc1ccc(-c2ccccc2)cc1)N1CCOCC1")
83
>>> recorded_number("O=C(CCCSc1ccc(Cl)cc1)Nc1cc(S(=O)(=O)N2CCOCC2)ccc1O")
25
>>> recorded_number("CN(C)C(=O)Oc1noc2cc(Cl)ccc12")
100
>>> recorded_number("CCCCOC(=O)c1ccc(OC(=O)N2CCOCC2)cc1")
62
>>> recorded_number("O=C(/C=C/c1cccs1)c1cc(Br)ccc1OC(=O)N1CCOCC1")
61
>>> recorded_number("O=C(Oc1nsnc1N1CCOCC1)N1CCOCC1")
85

====

# Test system: ABHD6
# experiment_summary: pPAFAH inhibition and serine hydrolase selectivity, late-stage follow-up, selectivity assay for pPAFAH inhibitor project, biochemical, gel-based, FP-Rh fluorescence, mouse, HTS hit compounds (AID 588773)
# condition_context: gel-based competitive ABPP, proteome, at 10 µM, stronger effect = higher value
outcome_measure: inhibition (%)

>>> recorded_number("O=C(Oc1ccc(Oc2ccccc2)cc1)N1CCC(O)CC1")
39
>>> recorded_number("CCCCOC(=O)c1ccc(OC(=O)N2CCOCC2)cc1")
22
>>> recorded_number("O=C(CCCSc1ccc(Cl)cc1)Nc1cc(S(=O)(=O)N2CCOCC2)ccc1O")
26
>>> recorded_number("O=C(Oc1ccc(-c2ccccc2)cc1)N1CCOCC1")
25
>>> recorded_number("O=C(Oc1nsnc1N1CCOCC1)N1CCOCC1")
39
>>> recorded_number("O=C(Oc1ccc([N+](=O)[O-])cc1)N1CCC(N2CCCCC2)CC1")
48
>>> recorded_number("CN(C)C(=O)Oc1noc2cc(Cl)ccc12")
65
>>> recorded_number("O=C(Oc1ccc(-c2ccccc2)cc1)N1CCCCC1")
53

====

# system_under_test: Platelet-activating factor acetylhydrolase (Mus musculus) (UniProt Q60963)
# Sequence (Q60963 whole entry, looked up): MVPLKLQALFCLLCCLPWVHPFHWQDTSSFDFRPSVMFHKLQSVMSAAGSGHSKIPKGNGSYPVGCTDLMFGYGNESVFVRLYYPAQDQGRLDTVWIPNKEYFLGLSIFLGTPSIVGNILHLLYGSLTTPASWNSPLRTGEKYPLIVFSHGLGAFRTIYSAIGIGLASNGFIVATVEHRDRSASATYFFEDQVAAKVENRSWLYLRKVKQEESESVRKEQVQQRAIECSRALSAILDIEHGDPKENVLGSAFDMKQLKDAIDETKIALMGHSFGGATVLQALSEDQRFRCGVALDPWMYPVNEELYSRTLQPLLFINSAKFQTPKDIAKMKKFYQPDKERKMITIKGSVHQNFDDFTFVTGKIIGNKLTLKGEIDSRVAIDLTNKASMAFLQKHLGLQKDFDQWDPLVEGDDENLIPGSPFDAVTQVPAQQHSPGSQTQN
# experiment_summary: pPAFAH inhibition and serine hydrolase selectivity, late-stage follow-up, selectivity assay for pPAFAH inhibitor project, biochemical, gel-based, FP-Rh fluorescence, mouse, HTS hit compounds (AID 588773)
# condition_context: gel-based competitive ABPP, proteome, pPAFAH, at 10 µM, stronger effect = higher value
# maps each entry to its inhibition
outcome_measure: inhibition (%)

>>> recorded_number("O=C(Oc1nsnc1N1CCOCC1)N1CCOCC1")
86
>>> recorded_number("O=C(Oc1ccc([N+](=O)[O-])cc1)N1CCC(N2CCCCC2)CC1")
92
>>> recorded_number("O=C(Oc1ccc(-c2ccccc2)cc1)N1CCCCC1")
95
>>> recorded_number("O=C(CCCSc1ccc(Cl)cc1)Nc1cc(S(=O)(=O)N2CCOCC2)ccc1O")
88
